# system.under.test: T1, CEACAM3 on transfected HeLa cells (human, UniProt P40198 35-252)
# T1 construct: whole, on cells; also called HeLa-CEACAM3; HeLa C3
# T1 sequence (looked up): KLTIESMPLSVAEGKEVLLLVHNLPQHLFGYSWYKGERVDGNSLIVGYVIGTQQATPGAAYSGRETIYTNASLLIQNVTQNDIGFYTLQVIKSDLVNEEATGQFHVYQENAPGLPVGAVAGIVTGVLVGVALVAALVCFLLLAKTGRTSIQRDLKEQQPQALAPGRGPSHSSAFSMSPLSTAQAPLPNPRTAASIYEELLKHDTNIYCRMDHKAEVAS
# protocol.details: flow cytometry, HeLa-CEACAM3 transfectants, % staining, stacked bars
readout.label: binding result

>>> reading("VH1/Vκ8 S29A (antibody, IgG4, V domains shown, IgG4 (S241P), kappa; also called Parent; Parent (VH1/Vκ8 S29A)) VH: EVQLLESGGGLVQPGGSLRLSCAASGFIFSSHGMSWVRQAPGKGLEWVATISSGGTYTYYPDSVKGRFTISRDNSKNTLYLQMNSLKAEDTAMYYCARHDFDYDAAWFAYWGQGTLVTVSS VL: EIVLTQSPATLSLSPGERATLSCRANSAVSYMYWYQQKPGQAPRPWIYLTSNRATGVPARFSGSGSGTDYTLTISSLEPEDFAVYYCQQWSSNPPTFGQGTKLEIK")
"no binding"
>>> reading("CP08H03/CP08F05 (antibody, V domains shown, IgG4 (S241P), kappa) VH: EVQLLESGGGLVQPGGSLRLSCAASGFIFSSHGMSWVRQAPGKGLEWVATISSGGTYTYYPDSVKGRFTISRDNSKNTLYLQMNSLKAEDTAMYYCARHDFDYFPYWFAHWGQGTLVTVSS VL: EIVLTQSPATLSLSPGERATLSCRANSAVSYMYWYQQKPGQAPRPWIYLTSNRATGVPARFSGSGSGTDYTLTISSLEPEDFAVYYCQQWTSNPPTFGQGTKLEIK")
"no binding"
>>> reading("CP08H03/CP08E05 (antibody, IgG4, V domains shown, IgG4 (S241P), kappa) VH: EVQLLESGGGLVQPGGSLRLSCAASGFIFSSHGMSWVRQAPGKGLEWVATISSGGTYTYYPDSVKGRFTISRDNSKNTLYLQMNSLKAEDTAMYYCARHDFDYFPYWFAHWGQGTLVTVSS VL: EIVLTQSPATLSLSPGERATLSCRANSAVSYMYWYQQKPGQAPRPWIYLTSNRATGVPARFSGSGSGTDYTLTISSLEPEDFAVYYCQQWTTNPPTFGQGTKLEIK")
"no binding"
